Test: ACEA_AR_antagonist_AUC_viability: ACEA Biosciences xCELLigence Real-Time Cell Analysis on Androgen Receptor Antagonism for Viability (AID 2283776);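 note: 22Rv1 human prostate cancer cells growing on impedance electrode plates; area under impedance growth curve at 80 h after dosing as viability; hits lower the growth signal relative to DMSO meaning cytotoxicity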
Records with an inconclusive call do not appear. The source made the active and inactive calls. Rule for the calls: active = hit-call score of the fitted dose curve at least 0.9, where 1 is the maximum; inconclusive = response in the unintended direction; inactive = score below 0.9.
Classes used: Yes (active), No (inactive)

{"MOLECULE": "Nc1nc(N)nc(NC2CC2)n1", "ASSIGNED CATEGORY": "No"}
{"MOLECULE": "CN(C)NC(=O)CCC(=O)O", "ASSIGNED CATEGORY": "No"}
{"MOLECULE": "CC1=NNC(=O)N(/N=C/c2cccnc2)C1", "ASSIGNED CATEGORY": "No"}
{"MOLECULE": "CCCCN(CC)c1c([N+](=O)[O-])cc(C(F)(F)F)cc1[N+](=O)[O-]", "ASSIGNED CATEGORY": "Yes"}
{"MOLECULE": "CC(COc1ccc(Oc2ccccc2)cc1)Oc1ccccn1 (stereo unspecified)", "ASSIGNED CATEGORY": "Yes"}
{"MOLECULE": "CCc1cnc(C2=NC(C)(C(C)C)C(=O)N2)c(C(=O)O)c1 (stereo unspecified)", "ASSIGNED CATEGORY": "No"}
{"MOLECULE": "CCCOc1nn(C(=O)NS(=O)(=O)c2ccccc2C(=O)OC)c(=O)n1C", "ASSIGNED CATEGORY": "No"}
{"MOLECULE": "CC(C)N(C(=O)SCC(Cl)=C(Cl)Cl)C(C)C", "ASSIGNED CATEGORY": "Yes"}
{"MOLECULE": "CCOP(=S)(OCC)Oc1ccc([N+](=O)[O-])cc1", "ASSIGNED CATEGORY": "No"}
{"MOLECULE": "CCOC(=O)COc1cc(-c2nn(C)c(OC(F)F)c2Cl)c(F)cc1Cl", "ASSIGNED CATEGORY": "Yes"}
{"MOLECULE": "CCOC(=O)CC(SP(=O)(OC)OC)C(=O)OCC (stereo unspecified)", "ASSIGNED CATEGORY": "No"}
{"MOLECULE": "CCCOCC(=Nc1ccc(Cl)cc1C(F)(F)F)n1ccnc1", "ASSIGNED CATEGORY": "Yes"}
{"MOLECULE": "CCNc1nc(Cl)nc(NC(C)(C)C#N)n1", "ASSIGNED CATEGORY": "Yes"}
{"MOLECULE": "C#CCC1=C(C)C(OC(=O)C2C(C=C(C)C)C2(C)C)CC1=O (stereo unspecified)", "ASSIGNED CATEGORY": "Yes"}
{"MOLECULE": "S=C1NCCN1", "ASSIGNED CATEGORY": "No"}
{"MOLECULE": "CNC(=O)ON=C(SC)C(=O)N(C)C", "ASSIGNED CATEGORY": "No"}
{"MOLECULE": "C[N+]1(C)CCCCC1", "ASSIGNED CATEGORY": "No"}
{"MOLECULE": "CCOP(=S)(Oc1cnc(C(C)(C)C)nc1)OC(C)C (stereo unspecified)", "ASSIGNED CATEGORY": "Yes"}
{"MOLECULE": "CCCSP(=O)(OCC)SCCC", "ASSIGNED CATEGORY": "Yes"}
{"MOLECULE": "CCCCOC(=O)c1ccccc1C(=O)O", "ASSIGNED CATEGORY": "No"}
{"MOLECULE": "CCOP(=S)(OCC)Oc1cc(C)nc(C(C)C)n1", "ASSIGNED CATEGORY": "No"}
{"MOLECULE": "CCOP(=S)(OCC)Oc1ccc2c(C)c(Cl)c(=O)oc2c1", "ASSIGNED CATEGORY": "Yes"}
{"MOLECULE": "C#CC(C)(C)NC(=O)c1cc(Cl)cc(Cl)c1", "ASSIGNED CATEGORY": "Yes"}
{"MOLECULE": "Cc1cc(C2CC2)nc(Nc2ccccc2)n1", "ASSIGNED CATEGORY": "Yes"}
{"MOLECULE": "COc1ccc(C(=CC(=O)N2CCOCC2)c2ccc(Cl)cc2)cc1OC", "ASSIGNED CATEGORY": "Yes"}
{"MOLECULE": "COP(=O)(OC)SCn1c(=O)oc2cc(Cl)cnc21", "ASSIGNED CATEGORY": "Yes"}
{"MOLECULE": "CN(C)C(=O)Nc1cccc(C(F)(F)F)c1", "ASSIGNED CATEGORY": "No"}
{"MOLECULE": "CCc1cccc(C)c1N(C(=O)CCl)C(C)COC (stereo unspecified)", "ASSIGNED CATEGORY": "No"}
{"MOLECULE": "CSc1nc(NC(C)C)nc(NC(C)C)n1", "ASSIGNED CATEGORY": "No"}
{"MOLECULE": "CCc1cccc(CC)c1N(COC)C(=O)CCl", "ASSIGNED CATEGORY": "Yes"}
{"MOLECULE": "Nc1c(Cl)cc([N+](=O)[O-])cc1Cl", "ASSIGNED CATEGORY": "Yes"}
